// data source = the supplement of paper PMC10567573

B1: ATE1 (parent)
chain: YGSFHQQYWLDGKIIAVGVIDILP

Variants of: B1
test.description: protein stability index of a GFP-peptide fusion (GPS, HEK-293T) (PSI 1-6); higher = more stable;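 note: lentivirally expressed fusions sorted by FACS into six bins by GFP to DsRed ratio, PSI derived from sequencing read proportions per bin multiplied by bin number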
protocol.conditions: c terminus: a fixed tail appended
Task for the reader: assign each of the following variants its reported protein stability index.
Returns: the value as a bare number; no unit string appended.

What value of measured protein stability index is listed for Q6F ?
2.94

Consider next the variant V19C in the same way.
2.56

Now give it for A16F too.
2.21

Could you do the same for Y1E , please?
1.92

And the next one, D11N ?
3.47

Input Y8W
2.58

Quick one: G12T
3.42

Consider next the variant I22W in the same way.
2.77

Then what about the variant H5Q ?
2.37

Try G18C next.
4.11

Record: Y1K
3.54
